Tested on: ACHN renal
PROTOCOL: NCI tumour cell line growth inhibition, 48 h; in the data active means GI50 below about 0.43 µM; inactive means the rest
Output constraint: value belongs to yes for active, no for inactive

Problem: Outcome logged for `COc1cc2c(cc1OC)-c1ncc3cc(OC)c(OC)cc3c1C2` in this assay:
Result: no

Problem: State the result this test recorded for COC1C(O)CC(OC2CC(OC3CC(O[C@@H]4C(=O)c5c(cc6cc(OC7CC(OC8CC(O)C(O)C(C)O8)C(O)C(C)O7)c(C)c(O)c6c5O)CC4[C@H](OC)[C@@H](O)C(C)=O)OC(C)C3O)OC(C)C2O)OC1C (stereo partly drawn) .
Result: yes

Problem: What call does the record list for `CN1CCN(Cc2ccc(NC(=O)c3cccc(C#Cc4c(N)ncc5ccc(F)cc45)c3)cc2C(F)(F)F)CC1` ?
Result: no

----------
Tested on: MDA-MB-435
PROTOCOL: NCI tumour cell line growth inhibition, 48 h
Square brackets hold non-standard residues; d marks the D form. Peptide text beside a SMILES is read from it. Phe(4-NO2) = N[CH](Cc1ccc([N+](=O)[O-])cc1)C(=O)O
MEASUREMENT_NAME: TGI

Problem: I am curious: what TGI value has been reported for `NC(N)=NC(N)=Nc1ccc(S(N)(=O)=O)cc1` ?
Result: > 100 µM

Problem: What value of measured TGI is listed for `C#CCOC(=O)[C@@H](C)c1ccc2cc(OC)ccc2c1` ?
Result: > 100 µM

Problem: Using the record for CN(C)c1c(C2CC(O)C(CO)O2)c(=O)c1=O (stereo not given) , report its TGI.
Result: > 100 µM

Problem: Requested field: TGI. Item: `S=C(S)N1CCN(c2ccccc2)CC1`
Result: > 100 µM

Problem: Suppose we examine the compound `COc1ccc2c(c1)c(-c1ccc(-c3cn(C)c4ccc(OC)cc34)o1)cn2C` ; what TGI value has been reported?
Result: > 100 µM

Problem: Item `N#Cc1c2ccc([N+](=O)[O-])cc2c(=O)n2c1sc1ccccc12` has what recorded TGI?
Result: > 100 µM

Problem: // query TGI value for entry `COC(=O)[C@H](Cc1cn(C)cn1)NC(=O)[C@@H](NC(=O)Nc1cc(C(F)(F)F)cc(C(F)(F)F)c1)C(C)(C)C`
Result: > 10 µM

Problem: Recorded TGI of `Clc1nc(Nc2nc3ccccc3[nH]2)nc(Cl)c1-c1ccccc1` , please.
Result: > 100 µM

Problem: Endpoint output: TGI of `CCOC(OCC)[C@H](N)[C@@H](O)[C@@H](O)[C@H]1COC(C)(C)O1` . Value?
Result: > 100 µM

Problem: May I ask what TGI has been recorded for CS(=O)(=O)CCC(N)P(=O)(O)O (stereo not given) ?
Result: > 100 µM

Problem: // returns reported TGI for input O=C1/C(=C\c2cccc(Oc3ccccc3)c2)SC(c2ccccc2)N1c1cccc(Cl)c1 (stereo not given)
Result: > 100 µM

Problem: For COc1ccc(-c2nc(SC)n(C3OC(COC(C)=O)C(OC(C)=O)C(OC(C)=O)C3OC(C)=O)c(=O)c2C#N)cc1 (stereo not given) , what is its reported TGI?
Result: > 100 µM

Problem: Any idea what TGI was measured for Brc1ccc(C2CC3(c4ccccc4)ON=C(c4ccccc4)N3c3ccccc3S2)cc1 (stereo not given) ?
Result: > 100 µM

Problem: TGI lookup needed for COC1C(OC(C)=O)CC(=O)OC(C)C/C=C/C=C\C(O)C(C)CC(CC=O)C1OC1OC(C)C(OC2CC(C)(O)C(OC(=O)CC(C)C)C(C)O2)C(N(C)C)C1O (stereo not given) , thanks.
Result: > 100 µM

Problem: What measured TGI goes with `O=c1oc2ccccc2n1CCCn1c(=O)oc2ccccc21` ?
Result: > 100 µM

Problem: Returns the measured TGI for the input compound. Input: CC1(C)OC2COC(c3[nH]nc4c(=O)[nH]c(=O)[nH]c34)C2O1 (stereo not given)
Result: > 100 µM

Problem: Which value of TGI has been reported for `O=C(Nc1nccs1)NS(=O)(=O)n1cnc2ccccc21` in the records?
Result: > 100 µM

Problem: Which TGI value is on record for COC(=O)CCC(NC(=O)C(CCC(=O)OC)NC(=O)C(CCC(=O)OC)NC(=O)C(CCC(=O)OC)NC(=O)C(CCC(=O)OC)NC(=O)C(Cc1ccc([N+](=O)[O-])cc1)NC(=O)C(CCC(=O)OC)NC(=O)C(CCC(=O)OC)NC(=O)C(CCC(=O)OC)NC(=O)C(CCC(=O)OC)NC(=O)C(CCC(=O)OC)NC(C)=O)C(N)=O (stereo not given) (Ac-E(OMe)E(OMe)E(OMe)E(OMe)E(OMe)[Phe(4-NO2)]E(OMe)E(OMe)E(OMe)E(OMe)E(OMe)-NH2; configuration not given here) ?
Result: > 100 µM

Problem: Need TGI, item `CN(/N=C/c1ccccc1C(=O)O)C1=NCCCCN1`
Result: > 100 µM

Problem: Can you look up the measured TGI of CCC1(N)C(=O)OCc2c1cc1n(c2=O)Cc2cc3ccccc3nc2-1 (stereo not given) for me?
Result: > 100 µM

----------
Test system: SF-268 CNS
PROTOCOL: NCI tumour cell line growth inhibition, 48 h
MEASUREMENT_NAME: TGI

Problem: Please report the recorded TGI for COc1ccc(/C=C2/SC(c3c(O)ccc4ccccc34)N(NC(=O)CCCCCCCCC(=O)NN3C(=O)/C(=C\c4ccc(OC)c(OC)c4)SC3c3c(O)ccc4ccccc34)C2=O)cc1OC (stereo not drawn) .
Result: > 100 µM

Problem: Reported TGI for CC(C)(C)C1CCC(=O)C(C(O)CC2CC(=O)N(c3ccccc3)C(=O)C2)C1 (stereo not drawn) : what is it?
Result: > 100 µM

Problem: What value of measured TGI is listed for `COC(=O)[C@]1(Cc2ccc3ccccc3c2)CCCCCCN1C(=O)c1ccccc1` ?
Result: > 54 µM

----------
Tested on: UO-31 renal
PROTOCOL: NCI tumour cell line growth inhibition, 48 h
MEASUREMENT_NAME: TGI

Problem: // TGI lookup, key: CCOC(=O)NC(=O)c1cn(C2OC(COC(=O)CCCCCCCCC(=O)OCC3OC(n4cc(C(=O)NC(=O)OCC)c(=O)[nH]c4=O)C4OC(C)(C)OC34)C3OC(C)(C)OC32)c(=O)[nH]c1=O (stereo not drawn)
Result: > 100 µM

Problem: Quick check: TGI of C=C(C)[C@@H]1CC[C@]2(CN)CC[C@]3(C)[C@H](CC[C@@H]4[C@@]5(C)CCC(N)[C@@](C)(CO)[C@@H]5CC[C@]43C)[C@@H]12 (stereo partly drawn) ?
Result: 2.96 µM

Problem: // returns reported TGI for input `O=C(COC(=O)c1cccc2c(=O)c3ccccc3[nH]c12)Nc1ccc(S(=O)(=O)Nc2ncccn2)cc1`
Result: > 100 µM

Problem: Using the record for `CC1=CC(=O)/C(=C/N2C(=O)CNC2=S)C(=O)O1` , report its TGI.
Result: > 100 µM

Problem: What does the data say about its TGI? Entry: CCOC(=O)C(=O)C(/C(=N/N(C)C)C(=O)Nc1ccc(C)cc1C)c1nc2ccccc2[nH]c1=O (stereo not drawn)
Result: > 100 µM

Problem: Could you share which TGI value was measured for `Cc1nc(-n2nc(-c3ccccc3)cc2-c2ccccc2)sc1C(=O)/C=C/c1ccc(Cl)cc1` ?
Result: 21.1 µM

Problem: Look up TGI for this compound: COc1cc(OC2OC(CO)C(O)C(O)C2O)c2c(c1)O[C@@H]1[C@H](O)Oc3cc(OC)c(OC)cc3[C@]1(O)C2=O (stereo partly drawn)
Result: > 25 µM

Problem: // lookup TGI for N#CC1=C(S)N(C2OC(CO)C(O)C(O)C2O)C(c2ccccc2)=CC1c1cccs1 (stereo not drawn)
Result: > 100 µM

Problem: Which TGI is reported for this compound? C=C(C)C1CC2=C(O1)C(=O)c1cccc(O)c1C2=O (stereo not drawn)
Result: 2.84 µM

Problem: For O=P(O)(O)CC1OC(CO)C(O)C1O (stereo not drawn) , what is its reported TGI?
Result: > 100 µM

Problem: Given Cc1c(C#N)c(N)n(C2OC(CO)C(O)C(O)C2O)c(=S)c1C#N (stereo not drawn) , state its recorded TGI.
Result: > 100 µM

Problem: # get_value(readout='TGI', item= CCCCCCC/C=C1\CCC(CN(C)C)C1=O (stereo not drawn) )
Result: 29.1 µM

Problem: Any idea what TGI was measured for O=C1CSC(c2cccc(Oc3ccccc3)c2)N1c1cccc(Cl)c1Cl (stereo not drawn) ?
Result: > 100 µM

Problem: May I ask what TGI has been recorded for `CCCCCN(CCCCC)C(=O)[C@H](CCC(=O)OCc1ccccc1)NC(=O)c1cc2ccccc2[nH]1` ?
Result: > 100 µM

Problem: # lookup: TGI of `C/C(=N\Nc1nc2ccccc2o1)c1cc2ccccc2cn1`
Result: 0.271 µM

Problem: Tell me the measured TGI of CCOC(=O)C1=C(C)N(C2OC(COC(C)=O)C(OC(C)=O)C(OC(C)=O)C2OC(C)=O)C(=O)NC1c1ccccc1 (stereo not drawn) , please.
Result: > 100 µM

Problem: Data request, read-out TGI, for `CCC(C)(C)NS(=O)(=O)c1ccccc1`
Result: > 100 µM

Problem: State the recorded TGI for this entry: `C=CC(C)(C)n1cc(C2=C(O)C(=O)C(c3c(CC=C(C)C)[nH]c4ccccc34)=C(O)C2=O)c2ccccc21`
Result: 1.9 µM

Problem: Reported TGI for `C(/C=C/Nc1ccc(-c2ccccc2)cc1)=Nc1ccc(-c2ccccc2)cc1` : what is it?
Result: > 100 µM

Problem: I am curious: what TGI value has been reported for `N#Cc1ccc(NC(=O)Nc2nc3ccc(OC(F)(F)F)cc3s2)cc1` ?
Result: 7.92 µM

Problem: # query: TGI of entry `COC(=O)/C=C/c1cnc2c(c1)oc(=O)n2C`
Result: > 100 µM

Problem: Given the entry `Cn1cc2ccccc2c1-c1nc(F)nc(Nc2ccc(N)cc2)n1` , report its measured TGI.
Result: 53.8 µM

Problem: What value of TGI has been reported for the following compound? `Cc1ccc(NC(=S)N=Nc2c(O)[nH]c3ccccc23)cc1`
Result: > 100 µM

Problem: Entry `COC(=O)C1=C(O)c2cc3c(cc2[C@H](c2cc(OC)c(OC)c(OC)c2)C1)OCO3` has what TGI?
Result: 36.3 µM

Problem: Give its TGI value. Item: C[C@H](C(O)CC(=O)C(C)(C)O)[C@H]1CC[C@@]2(C)[C@@H]3CC[C@H]4C(C)(C)[C@@H](OC5OC(COC6OC(CO)C(O)C(O)C6O)C(O)C(O)C5O)CC[C@]4(C)C3=CC[C@]12C (stereo partly drawn)
Result: > 100 µM

Problem: Which TGI is listed for `CN=C(N)NC` ?
Result: > 100 µM

Problem: Sample `O=C(NNC(=O)c1c(Cl)c(Cl)c(Cl)c(Cl)c1-c1nc2ccccc2[nH]1)c1ccc(Cl)cc1` — what was its TGI?
Result: > 100 µM

Problem: Param item = `O=C1c2cc([N+](=O)[O-])sc2C(=O)c2cc([N+](=O)[O-])sc21` ; retrieve measured TGI.
Result: 7.68 µM

All figures here come from PubChem BioAssay (NCI).
